Reported pIC50 values for the following compounds.
assayed-target: human TLR8 (Homo sapiens (Human), UniProt Q9NR97)
Sequence (Q9NR97 27-1041): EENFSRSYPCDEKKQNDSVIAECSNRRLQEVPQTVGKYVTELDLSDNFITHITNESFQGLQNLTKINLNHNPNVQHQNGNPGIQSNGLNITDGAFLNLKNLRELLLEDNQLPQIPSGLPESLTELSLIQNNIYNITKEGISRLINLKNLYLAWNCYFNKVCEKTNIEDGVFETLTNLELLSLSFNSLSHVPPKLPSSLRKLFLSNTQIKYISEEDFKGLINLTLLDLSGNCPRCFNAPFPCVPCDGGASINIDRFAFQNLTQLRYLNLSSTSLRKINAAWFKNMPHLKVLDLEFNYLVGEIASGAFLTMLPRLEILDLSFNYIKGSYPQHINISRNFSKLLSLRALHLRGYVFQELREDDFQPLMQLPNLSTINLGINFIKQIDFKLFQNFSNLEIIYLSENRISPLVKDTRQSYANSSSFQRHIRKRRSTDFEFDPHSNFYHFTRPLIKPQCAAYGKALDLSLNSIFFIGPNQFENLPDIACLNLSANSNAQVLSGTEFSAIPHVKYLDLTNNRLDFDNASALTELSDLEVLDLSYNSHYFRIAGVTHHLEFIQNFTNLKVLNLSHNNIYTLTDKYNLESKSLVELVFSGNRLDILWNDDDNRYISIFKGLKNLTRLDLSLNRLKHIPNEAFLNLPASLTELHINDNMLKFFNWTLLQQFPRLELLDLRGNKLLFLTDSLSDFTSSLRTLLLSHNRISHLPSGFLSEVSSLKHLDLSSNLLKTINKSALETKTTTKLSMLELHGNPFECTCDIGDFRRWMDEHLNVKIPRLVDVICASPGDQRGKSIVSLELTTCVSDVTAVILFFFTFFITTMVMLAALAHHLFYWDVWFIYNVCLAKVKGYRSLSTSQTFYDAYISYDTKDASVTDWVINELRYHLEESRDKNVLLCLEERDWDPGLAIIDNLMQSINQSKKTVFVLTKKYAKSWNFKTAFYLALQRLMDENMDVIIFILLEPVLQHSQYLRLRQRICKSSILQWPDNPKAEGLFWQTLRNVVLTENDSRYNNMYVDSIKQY
measurement-notes: TLR8 inhibition reporter assay (HEK-Blue SEAP);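 further: SEAP driven by IFN-β minimal promoter carrying NF-κB and AP-1 sites, compounds dosed 0.05 nM to 50 µM for 22 h, inhibition scaled between agonist-plus-DMSO and reference-inhibitor wells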
condition-set: read-out: TLR8 IC50; HEK-Blue cells overexpressing human TLR8, SEAP reporter, R848 15.9 μM
pIC50: −log10 of the molar value.

compound: Cc1cc(-c2[nH]c3ccc(C4CN(C5COC5)CCO4)nc3c2C(C)C)cn(C)c1=O (stereo not shown) [Example 667]
assayed-target: human TLR8 (Homo sapiens (Human), UniProt Q9NR97)
pIC50: 6.15
--
compound: COc1cc(-c2[nH]c3cc(C)c(C4CCN(C5CCOCC5)CC4)nc3c2C(C)C)cn2ncnc12 [Example 589]
assayed-target: human TLR8 (Homo sapiens (Human), UniProt Q9NR97)
pIC50: 7.21
--
compound: CNC(=O)CNC1CC(c2ccc3[nH]c(-c4cc(OC)c5ncnn5c4)c(C(C)C)c3n2)C1 (stereo not shown) [Example 628]
assayed-target: human TLR8 (Homo sapiens (Human), UniProt Q9NR97)
pIC50: 8.48
--
compound: Cc1c(-c2[nH]c3ccc(C4CCC(N(CC#N)CCS(C)(=O)=O)CC4)nc3c2C(C)C)cn2ncnc2c1C (stereo not shown) [Example 458]
assayed-target: human TLR8 (Homo sapiens (Human), UniProt Q9NR97)
pIC50: 8.00
--
compound: Cc1c(-c2[nH]c3ccc(C4CCC(N5CC6(COC6)C5)CC4)nc3c2C(C)C)cn2ncnc2c1C (stereo not shown) [Example 437]
assayed-target: human TLR8 (Homo sapiens (Human), UniProt Q9NR97)
pIC50: 7.96
--
compound: Cc1c(-c2[nH]c3ccc(C4CCC(NCc5c[nH]nn5)CC4)nc3c2C(C)C)cn2ncnc2c1C (stereo not shown) [Example 412]
assayed-target: human TLR8 (Homo sapiens (Human), UniProt Q9NR97)
pIC50: 8.68
--
compound: Cc1cc2[nH]c(-c3cc(C)c4ncnn4c3)c(C(C)C)c2nc1C1CCN(CC(=O)N(C)C)CC1 [Example 581]
assayed-target: human TLR8 (Homo sapiens (Human), UniProt Q9NR97)
pIC50: 7.10
